Values from PubChem BioAssay (NCI)

A collection of compounds and their measured growth
- Tested on: A498 renal
- assay-remarks: NCI-60 one-dose screen, 48 h (100 = growth as untreated, 0 = no growth, -100 = all killed)
- test-settings: 10 µM unless noted
The panel holds about 83,000 compounds, 20% with a hit somewhere; the sample as a whole holds those more often.
experimental-endpoint: growth (%)

[[record]]
compound = "COC12CC3C4=CCOC5CC(=O)N6c7ccccc7C1(CCN2C4)C6C53 (stereo not given)"
unit_string = "%"
value_measured = 94.6

[[record]]
compound = "C/C=C(/C)C(=O)O[C@H]1CC[C@@]2(C)[C@@H]3CC[C@H]4[C@]5(O)C[C@H](O)[C@@]6(O)[C@@H](CN7C[C@@H](C)CC[C@H]7[C@@]6(C)O)[C@]5(O)C[C@@]42O[C@@]13O"
unit_string = "%"
value_measured = 127

[[record]]
compound = "CC1(C)N(Nc2ccccc2)C(=O)C2CCCN21 (stereo not given)"
unit_string = "%"
value_measured = 96.5

[[record]]
compound = "O=[N+]([O-])c1cc(Cl)c(Cl)c([N+](=O)[O-])c1Cl"
unit_string = "%"
value_measured = 108

[[record]]
compound = "[N-]=[N+]=CC(=O)CCC(=O)C=[N+]=[N-]"
unit_string = "%"
value_measured = 110


---

A collection of compounds and their measured growth
- Test system: HT29 colon
- assay-remarks: NCI-60 one-dose screen, 48 h (100 = growth as untreated, 0 = no growth, -100 = all killed)
- test-settings: 10 µM unless noted
Compounds without any hit were thinned out: in the full panel of roughly 83,000, 20% have a hit.
experimental-endpoint: growth (%)

[[record]]
compound = "C[C@]12CCc3sc(Nc4ccc(OC(F)(F)F)cc4)nc3C1=CC[C@@H]1[C@@H]2CC[C@]2(C)C(=O)CC[C@@H]12"
unit_string = "%"
value_measured = 13

[[record]]
compound = "N#CC(N)c1ccccc1 (stereo not given)"
unit_string = "%"
value_measured = 111

[[record]]
compound = "O=[N+]([O-])c1ccc2scc3c4ccccc4nc-3c2c1"
unit_string = "%"
value_measured = -47

[[record]]
compound = "O=C(CBr)OCCOC(=O)CBr"
unit_string = "%"
value_measured = 92.5

[[record]]
compound = "COC(=O)C1=CO[C@@H](C)[C@@H]2CN3CCc4c([nH]c5cc(OC)ccc45)[C@@H]3C[C@H]12"
unit_string = "%"
value_measured = 103

[[record]]
compound = "COc1ccc(N(CC(=O)NCCC[Te]c2ccccc2)C(=O)c2ccccc2)cc1"
unit_string = "%"
value_measured = -25.5

[[record]]
compound = "CC[C@H](C)[C@H]1O[C@]2(C=C[C@@H]1C)C[C@@H]1C[C@@H](C/C=C(\\C)[C@@H](O[C@H]3C[C@H](OC)[C@@H](O[C@H]4C[C@H](OC)[C@@H](NC)[C@H](C)O4)[C@H](C)O3)[C@@H](C)/C=C/C=C3\\CO[C@@H]4[C@H](O)C(C)=C[C@@H](C(=O)O1)[C@]34O)O2"
unit_string = "%"
value_measured = -64.3

[[record]]
compound = "CN1CCC2(CC1)C(C#N)C(=O)NC(=O)C2C#N (stereo not given)"
unit_string = "%"
value_measured = 118

[[record]]
compound = "N#CCc1ccc(CC#N)cc1"
unit_string = "%"
value_measured = 92.4

[[record]]
compound = "COc1cc2c(cc1OC)-c1c3c(cc4c1[C@@H](C2)N(C)CC4)OCO3"
unit_string = "%"
value_measured = 29

[[record]]
compound = "CC[C@H](C)[C@H](NC(=O)[C@H]1CCCCN1C)C(=O)N(C)[C@H](C[C@@H](OC(C)=O)c1nc(C(=O)N[C@@H](Cc2ccccc2)C[C@H](C)C(=O)O)cs1)C(C)C"
unit_string = "%"
value_measured = -18.7

[[record]]
compound = "N#CC(C#N)=C(C#N)C#N"
unit_string = "%"
value_measured = 110

[[record]]
compound = "COC[C@H]1OC(=O)c2coc3c2[C@@]1(C)C1=C(C3=O)[C@@H]2CCC(=O)[C@@]2(C)C[C@H]1OC(C)=O"
unit_string = "%"
value_measured = 34.4

[[record]]
compound = "O=C(O)CNCP(=O)(O)O"
unit_string = "%"
value_measured = 98.6

[[record]]
compound = "O=[P+](O)c1cccnc1"
unit_string = "%"
value_measured = 93.7

[[record]]
compound = "CC(=O)OC1CC2(O)C(CCC3(C)C(c4ccc(=O)oc4)CCC32O)C2(C)CCC(OC3OC(CO)C(O)C(O)C3O)C=C12 (stereo not given)"
unit_string = "%"
value_measured = -55

[[record]]
compound = "COc1ccc(C(C#N)C(C)=O)cc1 (stereo not given)"
unit_string = "%"
value_measured = 88.7

[[record]]
compound = "N#CCN(CC#N)[N+](=O)[O-]"
unit_string = "%"
value_measured = 103

[[record]]
compound = "O=C(NC(Cl)=C(Cl)Cl)P(=O)(c1ccccc1)c1ccccc1"
unit_string = "%"
value_measured = 112

[[record]]
compound = "C=CCOC(=O)C(Br)CC (stereo not given)"
unit_string = "%"
value_measured = 110


---

- Test system: A549/ATCC NSCLC
- assay-remarks: NCI-60 one-dose screen, 48 h (100 = growth as untreated, 0 = no growth, -100 = all killed)
- test-settings: 10 µM unless noted
About 83,000 compounds went through this panel and 20% of them were active in at least one assay; those are over-represented in the sample as a whole.
A collection of compounds and their measured growth
experimental-endpoint: growth (%)

[[record]]
smiles_notation = "Cc1ccc(C(=O)O[C@H](C(=O)O)[C@H](OC(=O)c2ccc(C)cc2)C(=O)O)cc1"
experimental_endpoint = "growth"
unit_string = "%"
value_measured = 103

[[record]]
smiles_notation = "O=C(CBr)OCCOC(=O)CBr"
experimental_endpoint = "growth"
unit_string = "%"
value_measured = 92.8

[[record]]
smiles_notation = "O=C(O)c1ccccc1N(CCO)CCCl"
experimental_endpoint = "growth"
unit_string = "%"
value_measured = 98.1


---

- Tested on: HT29 colon
- assay-remarks: NCI-60 one-dose screen, 48 h
- test-settings: 10 µM unless noted
About 83,000 compounds went through this panel and 20% of them were active in at least one assay; those are over-represented in the sample as a whole. Calls of active or inactive are those of the source. The calls were made as follows: active = growth percent below 10; inactive = the rest.
Outcome codes: active, inactive

[[record]]
compound = "O=S(OO)c1cc(Cl)c(O)c(Cl)c1 (stereo unspecified)"
assigned_label = "inactive"

[[record]]
compound = "O=S1(=O)OCCO1"
assigned_label = "inactive"

[[record]]
compound = "O=C(O)C(Br)CBr (stereo unspecified)"
assigned_label = "inactive"

[[record]]
compound = "CCCC[C@H]1C(=O)O[C@H](C)[C@H](NC(=O)c2cccc(NC=O)c2O)C(=O)O[C@@H](C)[C@@H]1OC(=O)CC(C)C"
assigned_label = "inactive"

[[record]]
compound = "OCCN=Cc1c[nH]c2ccccc12"
assigned_label = "inactive"

[[record]]
compound = "C[C@]12C[C@H](c3ccoc3)OC(=O)[C@H]1CC[C@@]1(C)[C@@H]2[C@H]2C=C[C@]1(O)C(=O)O2"
assigned_label = "inactive"

[[record]]
compound = "Cc1cc(C(C)(C)C)ccc1O"
assigned_label = "inactive"

[[record]]
compound = "CCC(=O)C(CC(C)N1CCCCCC1)(c1ccccc1)c1ccccc1 (stereo unspecified)"
assigned_label = "inactive"

[[record]]
compound = "CCC1(NC(=O)c2cc(F)c(F)c(F)c2F)C(=O)NC(=O)N(C(C)C)C1=O (stereo unspecified)"
assigned_label = "inactive"

[[record]]
compound = "CC1(C)CN=C(NN=C(/C=C/c2ccc(C(F)(F)F)cc2)/C=C/c2ccc(C(F)(F)F)cc2)NC1"
assigned_label = "active"

[[record]]
compound = "Cc1c2ccncc2c(C)c2c1[nH]c1ccccc12"
assigned_label = "active"


---

A collection of compounds and their measured growth
- Test system: SN12C renal
- assay-remarks: NCI-60 one-dose screen, 48 h (100 = growth as untreated, 0 = no growth, -100 = all killed)
- test-settings: 10 µM unless noted
About 83,000 compounds went through this panel and 20% of them were active in at least one assay; those are over-represented in the sample as a whole.
experimental-endpoint: growth (%)

[[record]]
compound = "Nc1nc(=S)nc(N)[nH]1"
unit_string = "%"
value_measured = 80.5

[[record]]
compound = "CNC(=O)CCl"
unit_string = "%"
value_measured = 96.9

[[record]]
compound = "Oc1ccccc1C=NCCN=Cc1ccccc1O"
unit_string = "%"
value_measured = 102

[[record]]
compound = "N#CC(N)c1ccccc1 (configuration not stated)"
unit_string = "%"
value_measured = 104

[[record]]
compound = "CC12CCC3C4CCC(=O)C=C4CCC3C1CC1CC(=O)OC12 (configuration not stated)"
unit_string = "%"
value_measured = 93.8

[[record]]
compound = "CC1=CC(=Nc2ccc(N(CCCl)CCCl)cc2)C=C(C)C1=O"
unit_string = "%"
value_measured = 20.4

[[record]]
compound = "C/C(=N/OC(=O)N(C)C)c1ccc(Cl)c(Cl)c1"
unit_string = "%"
value_measured = 95

[[record]]
compound = "O=CC1(c2ccccc2)CCN(Cc2ccccc2)CC1"
unit_string = "%"
value_measured = 107

[[record]]
compound = "N#CC(C#N)=Cc1cccc(F)c1"
unit_string = "%"
value_measured = 101

[[record]]
compound = "O=S(=O)(F)c1cccc(Cl)c1C[P+](c1ccccc1)(c1ccccc1)c1ccccc1"
unit_string = "%"
value_measured = 102

[[record]]
compound = "COc1cc(C2C3=C(CCCC3=O)N(CCO)c3cc4c(cc32)CCC4)cc(OC)c1OC (configuration not stated)"
unit_string = "%"
value_measured = 92.6

[[record]]
compound = "Nc1cccnc1"
unit_string = "%"
value_measured = 102

[[record]]
compound = "COC1C(O)CC(OC2CC(Oc3cc4cc5c(c(O)c4c(O)c3C)C(=O)[C@@H](OC3CC(OC4CC(OC6CC(C)(O)C(OC(C)=O)C(C)O6)C(O)C(C)O4)C(O)C(C)O3)[C@H]([C@H](OC)C(=O)[C@@H](O)[C@@H](C)O)C5)OC(C)C2OC(C)=O)OC1C (some centres not stated)"
unit_string = "%"
value_measured = 7.02

[[record]]
compound = "O=S(OO)c1cc(Cl)c(O)c(Cl)c1 (configuration not stated)"
unit_string = "%"
value_measured = 101

[[record]]
compound = "Cn1cc(C(=O)C[n+]2ccccc2)c2ccccc21"
unit_string = "%"
value_measured = 101

[[record]]
compound = "CC[C@H](C)[C@H](NC(=O)CN(C)C)C(=O)N(C)[C@H](C[C@@H](OC(C)=O)c1nc(C(=O)NC23C4C5C2C2C3C4C52C(=O)OC)cs1)C(C)C (some centres not stated)"
unit_string = "%"
value_measured = 31.8

[[record]]
compound = "C[C@]12CCC(=O)C[C@@H]1CC[C@@H]1[C@@H]2CC[C@]2(C)[C@@H](OC(=O)N(CCCl)N=O)CC[C@@H]12"
unit_string = "%"
value_measured = 24

[[record]]
compound = "Cc1ccc(P(=O)(O)O)cc1"
unit_string = "%"
value_measured = 97.7

[[record]]
compound = "COc1ccc(O)c2c(=O)c3c(OC)cc4c(c3oc12)[C@@H]1C=CO[C@@H]1O4"
unit_string = "%"
value_measured = 73.1

[[record]]
compound = "O=C(O)C(Br)CBr (configuration not stated)"
unit_string = "%"
value_measured = 98

[[record]]
compound = "CC1(C)N=C(N)N=C(N)N1c1ccc(CCC(=O)Nc2ccc(S(=O)(=O)F)cc2)cc1"
unit_string = "%"
value_measured = 33.4

[[record]]
compound = "Cc1c2ccncc2c(C)c2c1[nH]c1ccccc12"
unit_string = "%"
value_measured = -75.8

